# normalized growth annotations
experiment: chemical genetic growth profiling, strain panel (AID 1159580);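 further: tested at 20 µM; growth read once vehicle control cultures reached saturation at 30 °C; 1 = growth at the plate median or of vehicle wells; lower values mean less growth of the strain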; details: S. cerevisiae deletion strains, growth OD, locus YLR027C, strain aat2, stronger effect = lower value
About 2,000 (36%) of roughly 5,500 compounds were called active. Not shown: some 18% with an inconclusive outcome. This is one part of the list.
Test readout: normalized growth

1. CC(=O)O[C@H]1CC[C@@]2(C)C(=CCC3C2CC[C@@]2(C)C3CC[C@@H]2C(C)CCCC(C)C)C1 (some centres not stated)
0.979
2. CC1(C)CC2C1CCC1(C)OC2(C)CCC1O (configuration not stated)
1.02
3. CCn1cc(C(=O)O)c(=O)c2ccc(C)nc21
0.942
4. NC(=O)N/N=C\c1ccc([N+](=O)[O-])o1
1
5. NC(=O)c1cnccn1
0.976
6. O=C1CN(/N=C\c2ccc([N+](=O)[O-])o2)C(=O)N1
0.975
7. CCn1cc(C(=O)O)c(=O)c2cnc(N3CCNCC3)nc21
1.01
8. O=C(/C=C/c1ccc(O)c(O)c1)O[C@@H]1C[C@](O)(C(=O)O)C[C@@H](O)[C@H]1O
0.999
9. CC12CCCC(O)(C1)C1CC(C)(C)C1CC2 (configuration not stated)
0.948
10. OC/C=C/c1ccc(O)c(O)c1
0.988
11. Oc1ccc(/C=C/c2cc(O)cc(O)c2)cc1
0.994
12. CC(=O)O[C@H]1CC[C@@]2(C)C(=CCC3C2CC[C@]2(C)C(=O)CCC32)C1 (some centres not stated)
0.954
